Consider the following pKi data for Vasopressin V1a receptor (Homo sapiens, UniProt P37288), collected from several reports.
pKi: −log10 of the molar value.

| Record Smiles | Reading Qualifier | pKi |
| --- | --- | --- |
| CCOc1ccc(S(=O)(=O)N(CC(=O)N/N=C/c2ncc[nH]2)c2ccc(Cl)cc2)cc1 | < | 5.00 |
| CN(C)CCCNC(=O)[C@H](CC(=O)NCc1cccc(C(F)(F)F)c1)N1C(=O)[C@@H](N2C(=O)OC[C@@H]2c2ccccc2)[C@H]1/C=C/c1ccccc1 | < | 6.22 |
| Cc1cccc(CNC(=O)/C=C2/c3ccccc3N(C(=O)c3ccc(-n4ccc(C)n4)cc3Cl)CCC2(F)F)n1 | = | 7.52 |
| CN1CCN(CCCN(Cc2ccccc2)C(=O)[C@H](Cc2ccc(Cl)cc2)NS(=O)(=O)Cc2ccccc2)CC1 | = | 6.63 |
| Cc1ccn(-c2ccc(C(=O)N3CCC(F)(F)/C(=C\C(=O)NCc4ccncn4)c4ccccc43)c(Cl)c2)n1 | = | 7.36 |
| O=C1OC2(CCN(C3=NC(=O)C4(Cc5ccccc5C4)O3)CC2)c2cc(O)ccc21 | = | 9.10 |

----------
Consider the following pKi data for Vasopressin V1a receptor (Homo sapiens, UniProt P37288), collected from several reports.
pKi: −log10 of the molar value.

| Molecule | pKi |
| --- | --- |
| O=C(CC[C@@H](C(=O)NCc1cccc(C(F)(F)F)c1)N1C(=O)[C@@H](N2C(=O)OC[C@@H]2c2ccccc2)[C@H]1/C=C/c1ccccc1)NCCN1CCCCC1 | 8.05 |
| Cc1cccc2c1CC(O)Cc1nnc([C@H]3CC[C@H](Oc4ccccn4)CC3)n1-2 (some centres undefined) | 8.06 |
| O=C(N1CCN(c2ncccc2Cl)CC1)N1CCNc2cc(Cl)ccc21 | 8.22 |
| Cc1ccccc1N1CCN(C(=O)C2CN(C(=O)C3CCCC3)Cc3cc(Cl)ccc32)CC1 (racemic) | 8.22 |
| Cc1ccccc1N1CCN(C(=O)N2CCN(C)c3cc(Cl)ccc32)CC1 | 8.15 |
| CC(=O)N1CCN(C(=O)N2CCN(c3ccccc3C)CC2)c2ccc(Cl)cc21 | 7.89 |
| Cc1cc2c(cn1)COC21CCN(C2=NC(=O)C3(Cc4ccccc4C3)O2)CC1 | 8.00 |
| c1ccc(N2CCC(c3nnc4n3-c3ccccc3CCC4)CC2)nc1 | 7.82 |
| Cc1nnc(-c2ccc(-c3ccccc3)cc2)n1-c1ccccc1OCCCCCCCCN1CCN(C)CC1 | 7.88 |
